Listed below: nuclear beta-catenin stimulation values for each entry.
Assay: stimulators of nuclear beta-catenin in C2C12, primary screen, imaging, WNT3A-conditioned medium, mouse C2C12, NPC library (AID 1117326); further: reference of the scale not given here
Details: at 10 µM, stronger effect = higher value
Quick note: give the figure in %, leave out the unit.

compound: O=C(O)c1cccnc1
quantityUnit: %
nuclear beta-catenin stimulation: -0.4
//
compound: CC(=O)Oc1ccc(C(=C2CCCCC2)c2ccc(OC(C)=O)cc2)cc1
quantityUnit: %
nuclear beta-catenin stimulation: 0.2

Record request: nuclear beta-catenin stimulation value, item NCCc1ccc(O)c(O)c1
1.1

Record request: nuclear beta-catenin stimulation value, item CC(=O)OC[C@H]1O[C@@H](n2ncc(=O)[nH]c2=O)[C@H](OC(C)=O)[C@@H]1OC(C)=O
14
